SYSTEM_NAME: T1, Abeta-42 plaque particles (Homo sapiens, UniProt P05067)
T1 construct: Abeta 1-42
PROTOCOL_SUMMARY: Mass spectroscopy proteomics, semi-quantitative binding affinity of serum proteins (plaqueproteome, Table 2)
MEASUREMENT_PARAMETERS: higher number = stronger affinity
MEASUREMENT_KIND: Semi-quantitative analysis of proteins binding to different plaque particles: Abeta-42
Give only the figure.

# lookup: Semi-quantitative analysis of proteins binding to different plaque particles: Abeta-42 of Histone H1.3 (protein) SETAPLAPTIPAPAEKTPVKKKAKKAGATAGKRKASGPPVSELITKAVAASKERSGVSLAALKKALAAAGYDVEKNNSRIKLGLKSLVSKGTLVQTKGTGASGSFKLNKKAASGEGKPKAKKAGAAKPRKPAGAAKKPKKVAGAATPKKSIKKTPKKVKKPATAAGTKKVAKSAKKVKTPQPKKAAKSPAKAKAPKPKAAKPKSGKPKVTKAKKAAPKKK
2
